Numbers sourced from ChEMBL document CHEMBL3044807.

Quick reference for germination % at 500 µM among some molecules
tested on: Sorghum bicolor; test: Phytotoxic activity against Sorghum bicolor seedlings assessed as germination at 5x10'-4 mol/l at 28 +/-1 degC after 48 hr by acid-washed sand based radicle elongation assay (reference value: 100%); assay type: functional
Write it as a number; the unit % goes unstated.

Previously resolved entries follow.
CC1=C2CCC(C)C[C@@]23O[C@H]1[C@H](C)C(=O)[C@H]3C (stereo not given in full)    96
O=C1[C@@H]2CCCC[C@@H]1[C@@H]1C=C[C@@H]2O1    93
CC12OC(C3OOC1O3)C1CCCCC2C1=O (mixture of isomers)    96

Consider the record given below.
Input line: Any idea what its germination % at 500 µM is? The molecule is CCC1C(=O)C(CC)C23CC(C)CCC24OOC(C)(O4)C1O3 (mixture of isomers)
Output line: 100

###

Entries and their Activity
test system: Cucumis sativus; assay: Phytotoxic activity against Cucumis sativus (cucumber) assessed as weight of aerial parts at 5.0 x 10^-4 mol/l measured 15 days after seed sowing under greenhouse trials (reference value: 47.0 mg); format: functional
Record the value in mg, omitting the unit from your answer.

O=C1[C@@H]2CCCC[C@@H]1[C@@H]1C=C[C@@H]2O1    32.7
C[C@@]12C=C[C@](C)(O1)[C@H]1CCCC[C@H]2C1=O    39.7
CC(=O)[C@@]12C=C[C@H](O1)[C@H]1CCCC[C@H]2C1=O    20
CC1=C2CCC(C)C[C@@]23O[C@H]1[C@H](C)C(=O)[C@H]3C (stereo not given in full)    44.2

Shifting focus to the compound that follows.
Input line: Please report the recorded Activity for O=C1C2CCCCC1C1OC2C2OOC1O2 .
Output line: 34.1

###

system: Sorghum bicolor; test: Phytotoxic activity against Sorghum bicolor seedlings assessed as germination at 5x10'-4 mol/l at 28 +/-1 degC after 48 hr by acid-washed sand based radicle elongation assay (reference value: 100%); format: functional
VALUE KIND: germination % at 500 µM (%)
Kindly answer with a numeric value in %, unit omitted.

The cases that follow already have their germination % at 500 µM on record.
CC(=O)[C@@]12C=C[C@H](O1)[C@H]1CCCC[C@H]2C1=O    96
C[C@@]12C=C[C@H](O1)[C@H]1CCCC[C@H]2C1=O    99
CC12OOC(O1)C1OC2(C)C2CCCCC1C2=O (mixture of isomers)    100
CC[C@@H]1C(=O)[C@@H](CC)[C@@]23CC(C)CCC2=C(C)[C@H]1O3 (stereo not given in full)    93

Here's the next entry for you.
Input line: Please provide the recorded germination % at 500 µM for CC12OC(C)(C3OOC1O3)C1CCCCC2C1=O (mixture of isomers) , tested on Sorghum bicolor.
Output line: 100

###

tested on: Sorghum bicolor; assay: Phytotoxic activity against Sorghum bicolor assessed as aerial part growth inhibition at 5.0 x 10^-4 mol/l measured 15 days after seed sowing under greenhouse trials (reference value: 0.0%); format: functional; settings: 360 h
Assign 1 whenever inhibition at 500 µM does not fall below 40%; assign -1 whenever it does.

Please review the following examples before continuing.
CC(=O)[C@@]12C=C[C@H](O1)[C@H]1CCCC[C@H]2C1=O    -1
C[C@@]12C=C[C@H](O1)[C@H]1CCCC[C@H]2C1=O    1
C[C@@]12C=C[C@](C)(O1)[C@H]1CCCC[C@H]2C1=O    -1
CC1=C2CCC(C)C[C@@]23O[C@H]1[C@H](C)C(=O)[C@H]3C (stereo not given in full)    -1
O=C1[C@@H]2CCCC[C@@H]1[C@@H]1C=C[C@@H]2O1    -1

Input line: Entry CCC12OC(C3OOC1O3)C1CCCCC2C1=O (mixture of isomers) : is its inhibition at 500 µM no less than 40%?
Output line: 1

###

The following compounds are shown together with reported Activity values.
system: Sorghum bicolor; assay: Phytotoxic activity against Sorghum bicolor seedlings assessed as radicle length at 5x10'-4 mol/l at 28 +/-1 degC after 48 hr by acid-washed sand based radicle elongation assay (reference value: 5.1 cm); assay type: functional
Answer with the figure and its unit, nothing else.

Observe how each entry below is paired with its result.
CC12OOC(O1)C1OC2(C)C2CCCCC1C2=O (mixture of isomers)    1 cm
CC1=C2CCC(C)C[C@@]23O[C@H]1[C@H](C)C(=O)[C@H]3C (stereo not given in full)    1.5 cm
CC12OC(C)(C3OOC1O3)C1CCCCC2C1=O (mixture of isomers)    2.7 cm
O=C1[C@@H]2CCCC[C@@H]1[C@@H]1C=C[C@@H]2O1    1.9 cm
CC[C@@]12C=C[C@H](O1)[C@H]1CCCC[C@H]2C1=O    1.8 cm

Kindly review the next compound as well.
Input line: Item CC12OC(C3OOC1O3)C1CCCCC2C1=O (mixture of isomers) has what recorded Activity?
Output line: 1.5 cm

###

system: Cucumis sativus; experiment: Phytotoxic activity against Cucumis sativus (cucumber) assessed as root growth inhibition at 5.0 x 10^-4 mol/l measured 15 days after seed sowing under greenhouse trials (reference value: 0.0%); type: functional; conditions: 360 h
inhibition at 500 µM of 60% or higher: met. Under 60%: not met.

CC12OC(C3OOC1O3)C1CCCCC2C1=O (mixture of isomers)    met
CC12OC(C)(C3OOC1O3)C1CCCCC2C1=O (mixture of isomers)    met
CC(=O)[C@@]12C=C[C@H](O1)[C@H]1CCCC[C@H]2C1=O    met
C[C@@]12C=C[C@H](O1)[C@H]1CCCC[C@H]2C1=O    not met
O=C1[C@@H]2CCCC[C@@H]1[C@@H]1C=C[C@@H]2O1    not met

Input line: Could you please find out whether CC1CCC23OOC(C)(O2)C2OC3(C1)C(C)C(=O)C2C (mixture of isomers) has inhibition at 500 µM that meets 60% or exceeds it?
Output line: not met

Input line: Does the reported inhibition at 500 µM for CCC1C(=O)C(CC)C23CC(C)CCC24OOC(C)(O4)C1O3 (mixture of isomers) fall at or above the 60% mark?
Output line: not met

Input line: Textbook exercise: given the entry O=C1C2CCCCC1C1OC2C2OOC1O2 , state whether its inhibition at 500 µM is greater than or equal to 60%.
Output line: met

Input line: Dear colleague, could you confirm whether CC1=C2CCC(C)C[C@@]23O[C@H]1[C@H](C)C(=O)[C@H]3C (stereo not given in full) has inhibition at 500 µM at or above 60%?
Output line: not met

Input line: Hello, I need to know if CC[C@@H]1C(=O)[C@@H](CC)[C@@]23CC(C)CCC2=C(C)[C@H]1O3 (stereo not given in full) has measured inhibition at 500 µM not below 60%. Thanks!
Output line: met

Input line: Test whether the compound CC12OOC(O1)C1OC2(C)C2CCCCC1C2=O (mixture of isomers) records inhibition at 500 µM of 60% or higher.
Output line: not met

Input line: Does the compound C[C@@]12C=C[C@](C)(O1)[C@H]1CCCC[C@H]2C1=O have recorded inhibition at 500 µM that is 60% or more?
Output line: met

###

Listed here: items and their measured Activity.
test system: Cucumis sativus; experiment: Phytotoxic activity against Cucumis sativus (cucumber) assessed as weight of aerial parts at 5.0 x 10^-4 mol/l measured 15 days after seed sowing under greenhouse trials (reference value: 47.0 mg); assay type: functional
Response body: numeric value in mg, unit text excluded.

Please review the following examples before continuing.
CC12OOC(O1)C1OC2(C)C2CCCCC1C2=O (mixture of isomers)    32.9
CC[C@@H]1C(=O)[C@@H](CC)[C@@]23CC(C)CCC2=C(C)[C@H]1O3 (stereo not given in full)    30.7
CC[C@@]12C=C[C@H](O1)[C@H]1CCCC[C@H]2C1=O    14.5
CC12OC(C)(C3OOC1O3)C1CCCCC2C1=O (mixture of isomers)    26.4
CC1=C[C@@H]2O[C@]1(C)[C@H]1CCCC[C@H]2C1=O    16.3
C[C@@]12C=C[C@H](O1)[C@H]1CCCC[C@H]2C1=O    26
CCC12OC(C3OOC1O3)C1CCCCC2C1=O (mixture of isomers)    24.4
CC12OC(C3OOC1O3)C1CCCCC2C1=O (mixture of isomers)    17

Input line: I am curious: what Activity value has been reported for CCC1C(=O)C(CC)C23CC(C)CCC24OOC(C)(O4)C1O3 (mixture of isomers) ?
Output line: 30.1

Input line: # Activity lookup, item CC1CCC23OOC(C)(O2)C2OC3(C1)C(C)C(=O)C2C (mixture of isomers)
Output line: 29.7

###

tested on: Ipomoea grandifolia; assay: Phytotoxic activity against Ipomoea grandifolia assessed as weight of root at 5.0 x 10^-4 mol/l measured 21 days after seed sowing under greenhouse trials (reference value: 18.4 mg); assay type: functional
Measured Activity accompanies every entry in the list below.
Write the value in mg as a bare number.

CC12OC(C)(C3OOC1O3)C1CCCCC2C1=O (mixture of isomers)    5.7
CC(=O)[C@@]12C=C[C@H](O1)[C@H]1CCCC[C@H]2C1=O    8.6
C[C@@H]1CC[C@H]2[C@@H](C)C(=O)O[C@@H]3O[C@@]4(C)CC[C@@H]1[C@]32OO4    0.7
CCC12OC(C3OOC1O3)C1CCCCC2C1=O (mixture of isomers)    9.1
CC[C@@H]1C(=O)[C@@H](CC)[C@@]23CC(C)CCC2=C(C)[C@H]1O3 (stereo partly specified)    2.4

Input line: Recorded Activity of O=C1C2CCCCC1C1OC2C2OOC1O2 , please.
Output line: 7.4
